Tested on: Staphylococcus aureus
PROTOCOL_DETAILS: Antibacterial activity against Staphylococcus aureus ATCC 6538 assessed as growth inhibition at 1000 ug/mL after 24 hrs by disk diffusion assay
Type: functional
MEASUREMENT_PARAMETERS: ATCC 6538, 24 h, read-out: DIZ
OBSERVABLE: zone of inhibition at 1000 µg/mL (mm)
Report only the number, with the unit mm understood.

{"SMILES_CODE": "Cc1ccccc1Nc1ccc(N)c2nc[nH]c(=O)c12", "OBSERVABLE": "zone of inhibition at 1000 µg/mL", "RESULT_VALUE": 8}
{"SMILES_CODE": "N#Cc1c(F)c(Cl)c(Nc2ccc(Nc3ccc(Cl)cc3)c3c(=O)[nH]cnc23)c(C#N)c1F", "OBSERVABLE": "zone of inhibition at 1000 µg/mL", "RESULT_VALUE": 9.7}
{"SMILES_CODE": "CCN(CC)c1ccc(N)c2nc[nH]c(=O)c12", "OBSERVABLE": "zone of inhibition at 1000 µg/mL", "RESULT_VALUE": 7.3}
{"SMILES_CODE": "Cc1ccc(Nc2ccc(Nc3c(Cl)c(Cl)c(C#N)c(Cl)c3C#N)c3nc[nH]c(=O)c23)cc1C", "OBSERVABLE": "zone of inhibition at 1000 µg/mL", "RESULT_VALUE": 8.5}
{"SMILES_CODE": "N#Cc1c(Cl)c(Cl)c(Nc2ccccc2Nc2ccc([N+](=O)[O-])c3nc[nH]c(=O)c23)c(C#N)c1Cl", "OBSERVABLE": "zone of inhibition at 1000 µg/mL", "RESULT_VALUE": 7.3}

Data point: "Cc1ccc(Nc2ccc(Nc3c(Cl)c(Cl)c(C#N)c(Cl)c3C#N)c3nc[nH]c(=O)c23)cc1" ; zone of inhibition at 1000 µg/mL = 9.3

# compound "Cc1ccccc1Nc1ccc(Nc2c(Cl)c(Cl)c(C#N)c(Cl)c2C#N)c2nc[nH]c(=O)c12" ; its zone of inhibition at 1000 µg/mL = 10

So for "N#Cc1c(Cl)c(Cl)c(Nc2ccc(N3CCCCC3)c3c(=O)[nH]cnc23)c(C#N)c1Cl" , the logged zone of inhibition at 1000 µg/mL turned out to be 9.7

The compound "Cc1ccccc1Nc1ccc(Nc2c(Cl)c(F)c(C#N)c(F)c2C#N)c2nc[nH]c(=O)c12" showed zone of inhibition at 1000 µg/mL equal to 10.3

// zone of inhibition at 1000 µg/mL lookup, compound = "N#Cc1c(Cl)c(Cl)c(Nc2ccc(Nc3ccc(Cl)cc3)c3c(=O)[nH]cnc23)c(C#N)c1Cl" , result: 8.8

response.value for "N#Cc1c(Cl)c(Cl)c(Nc2ccc(Nc3cccc(Cl)c3)c3c(=O)[nH]cnc23)c(C#N)c1Cl" (field: zone of inhibition at 1000 µg/mL) = 8.5

The recorded zone of inhibition at 1000 µg/mL for entry "Cc1ccc(Nc2c(Cl)c(Cl)c(C#N)c(Cl)c2C#N)c(Nc2ccc([N+](=O)[O-])c3nc[nH]c(=O)c23)c1" equals 9.3

Sample "CCN(CC)c1ccc(Nc2c(Cl)c(Cl)c(C#N)c(Cl)c2C#N)c2nc[nH]c(=O)c12" ; zone of inhibition at 1000 µg/mL observed: 7.7
